Target sequence: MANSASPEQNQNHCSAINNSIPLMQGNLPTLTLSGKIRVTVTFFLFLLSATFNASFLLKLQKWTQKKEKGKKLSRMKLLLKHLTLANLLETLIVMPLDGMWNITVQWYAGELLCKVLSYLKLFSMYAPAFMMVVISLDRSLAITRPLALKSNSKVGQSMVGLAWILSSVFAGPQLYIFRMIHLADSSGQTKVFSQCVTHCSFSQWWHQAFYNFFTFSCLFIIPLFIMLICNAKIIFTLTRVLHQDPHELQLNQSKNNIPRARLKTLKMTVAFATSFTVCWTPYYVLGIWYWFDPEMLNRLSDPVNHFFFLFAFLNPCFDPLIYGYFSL
Measured parameter: log10 of Ki (log10 of the value in nM)
On a log10 scale: recorded Ki, unit nM.

A selection of reference data follows.
[[record]]
chem_smiles = "N[C@@H](Cn1c(=O)c(-c2cccc(OCC(F)(F)F)c2F)cn(Cc2c(F)cccc2C(F)(F)F)c1=O)c1ccccc1"
measured_parameter = "log10 of Ki"
measured_result = 0.91

[[record]]
chem_smiles = "COc1cccc(-c2cn(Cc3c(F)cccc3S(=O)(=O)C(C)C)c(=O)n(C[C@H](N)c3ccccc3)c2=O)c1F"
measured_parameter = "log10 of Ki"
measured_result = 1.48


IN: Requested field: log10 of Ki. Item: COc1cccc(-c2cn(Cc3c(F)cccc3Cl)c(=O)n(C[C@H](N)c3ccccc3)c2=O)c1F
OUT: 0.15

IN: Requested field: log10 of Ki. Item: N[C@@H](Cn1c(=O)c(-c2ccccc2F)cn(Cc2c(F)cccc2C(F)(F)F)c1=O)c1ccccc1
OUT: 0.90

IN: Requested field: log10 of Ki. Item: N[C@@H](Cn1c(=O)c(-c2ccccc2C(F)(F)F)cn(Cc2c(F)cccc2C(F)(F)F)c1=O)c1ccccc1
OUT: 0.60

IN: Requested field: log10 of Ki. Item: COc1cccc(-c2cn(Cc3c(F)cccc3C(F)(F)F)c(=O)n(C[C@H](N)c3ccccc3)c2=O)c1Cl
OUT: -0.35
